- assay_remarks: Antiproliferative activity against human SJG2 cells assessed as cell growth inhibition at 25 uM incubated for 72 hrs by MTT assay relative to control
- Format: functional
- stated_conditions: SJ-G2
In this section we review reported inhibition at 25 µM values for a set of compounds.
measured_property: inhibition at 25 µM

{"compound": "O=C1NC(c2cccc(C(F)(F)F)c2)Nc2ccccc21 (centres undefined)", "measured_result": "> 100%"}
{"compound": "O=c1[nH]c(/C=C/c2ccc(O)cc2)nc2ccccc12", "measured_result": "> 100%"}
{"compound": "O=C1NC(C2CCCC2)Nc2ccccc21 (centres undefined)", "measured_result": "< 10%"}
{"compound": "O=C1NC(c2cccc(O)c2)Nc2ccccc21 (centres undefined)", "measured_result": "> 100%"}
